# assayRemarks: folding stability dG unfold (combined trypsin and chymotrypsin); higher = more stable
endpointName: folding stability dG unfold (kJ/mol)
Reply with just the number (in kJ/mol).

Examples from the recorded data:
{"residues": "SAGPKTLLLNIPPGEDVELLIGDKPYRIKVDPERLIGYAFDPETGEIFLIFHDPEKPIALITVFPSPPLSAG [r5_302_TrMRF]", "experimentalValue": 9.1}
{"residues": "SAGGSAGGSAKPPVTLTILVKNPETGEWVRLEVEFLPDGTVKITVTNPNGEKYTFTFKLPPSAGGSAGGSAG [r3_61_TrROS_Hall]", "experimentalValue": 23.4}
{"residues": "SGEFKPIATIDAKDGKPEAIIDSVKELLPDSGPVLVVLDLPDGPPKVNVIDPSTGKVREFVPGGNITIVPSA [r9_853_TrMRF]", "experimentalValue": 4.31}
{"residues": "SAGGSAGGSAGGMPVTVEVKEEELPGGEKVITVTVTYPDPVVETLEVKKLPPVDPNNKPSAGGSAGGSAGGS [r10_684_JUSTAS]", "experimentalValue": -0.429}
{"residues": "SAGGKKKYRIKITYKDEGKLYEVPEDVKATVDPNNVVYIEVDSKEAVDELVKAIAPKDGLEVEVEPGSAGGS [r8_131_TrMRF]", "experimentalValue": 3.83}

Q) Give the reported value of folding stability dG unfold for this record: SAGGSAGGSAGGMVELDPENGTLTVLVEVDGELYKVTIKFNPETNEIVSIEVEKLPELEESAGGSAGGSAGG [r7_343_TrROS_Hall]
A) 15.3

Q) Give the reported value of folding stability dG unfold for this record: SAGGSAKIEIPIMIPMPPGQEFDLKIRIPNLWKIKIERIYVSPDPGWIMFRIEIEPVAPPNDPEQMSAGGSA [r15_994_TrROS]
A) 14

* * *

Collected folding stability dG unfold values appear next to each entry.
# assayRemarks: folding stability dG unfold from chymotrypsin proteolysis; higher = more stable
Reply with just the number (in kcal/mol).

{"residues": "KTLVIHAKTPEEILAAIKEAIKEGKTVVIEMSPELIEALKEAGFEIEKIEEVEEIDGKKIYRVVIEVKPKES [r1_173_TrROS_Hall]", "folding stability dG unfold [kcal/mol]": 3.36}
{"residues": "SAGGKIKIVLSAEELEKKFGKSIEELAAELAKKLFPNKKVKVKKVKIEKDENGKEKLYVEVEIEPEKPSAGG [r13_723_TrROS_Hall]", "folding stability dG unfold [kcal/mol]": 3.2}
{"residues": "SDDIKNMPFRITEIEPLPPGDPIPPGQRIRITIQMPDFPGQPFEFDIRVDPENGMIYMEMGGMPFEIPIKSA [r9_243_TrROS]", "folding stability dG unfold [kcal/mol]": 1.6}
{"residues": "SAGGIEELAKALGIEEVEVTSIDPETREVTVRVRVRGPDGEERTLTVKIRLEPAPPPVRTFSEEELKSSAGG [r13_608_TrROS_Hall]", "folding stability dG unfold [kcal/mol]": 1.06}
{"residues": "SAGGSAGGSAMVVPRTYRVPPGLTVEEVADYLRAKDPNVIDATAERRPDGYLLVTVLVRLDSAGGSAGGSAG [r3_371_TrMRF]", "folding stability dG unfold [kcal/mol]": 2.07}

Q) Give the reported value of folding stability dG unfold for this record: SDPLGTPVPLTYRVLLTFPGVSRPFLGPGGVVRSVSVNPTVLVPGPANSYPAVRELAEPLGLSVSVTPLASA [r9_1209_TrMRF]
A) -0.289

Q) Give the reported value of folding stability dG unfold for this record: FKFKITELSFNPEWGYIHFNVKVEGPDGQPQTFPIMIRIRIPPPPPPPPPPMRADPDGKVRNPDDGKEHDAS [r1_270_TrROS]
A) 4.9

Q) Give the reported value of folding stability dG unfold for this record: SAGGSAGGSAGGKKVTITITIKVKEGEEITINGKKITVKPGETITITITITVPPKKKKKSAGGSAGGSAGGS [r10_949_TrROS_Hall]
A) 2.38

Q) Give the reported value of folding stability dG unfold for this record: SAGGSAGGSAGGSKELTVLVVEKNEDGTLTVRKFKIELKDGELKIVEEEEKTVPLEELKSAGGSAGGSAGGS [r4_389_TrROS_Hall]
A) 2.42

Q) Give the reported value of folding stability dG unfold for this record: SAGGSAGGKKVYPIPGATPNQFRELLDENKGTLKIYMPNGKQEEFPIKPGMEPIPGGPAWIERKSAGGSAGG [r6_304_TrROS]
A) -1.29
